Tested on: Translin-associated protein X (Homo sapiens), Q99598 [E126A]
Sequence (whole entry): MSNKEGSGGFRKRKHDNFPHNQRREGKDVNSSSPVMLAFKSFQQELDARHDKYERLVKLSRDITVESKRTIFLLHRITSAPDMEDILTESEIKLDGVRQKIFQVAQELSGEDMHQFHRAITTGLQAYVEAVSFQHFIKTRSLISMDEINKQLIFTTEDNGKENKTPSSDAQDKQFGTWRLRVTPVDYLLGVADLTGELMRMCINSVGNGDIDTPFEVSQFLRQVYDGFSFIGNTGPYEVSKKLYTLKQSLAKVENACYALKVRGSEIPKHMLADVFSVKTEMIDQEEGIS
Assay Text: Inhibition of wild type His-tagged translin/trax E126A mutant (unknown origin) coexpressed in Escherichia coli BL21 cells using RNase Alert as substrate at 30 uM incubated for 10 mins prior to substrate addition monitored over 60 mins by fluorescence assay
Endpoint: inhibition (%)

- CCCCCCCCCCCCCCCC[n+]1ccccc1: 56
- O=c1c(-c2cc(O)c(O)c(O)c2)coc2cc(O)c(O)c(O)c12: 78
- O=c1c(O)cc(C2Oc3cc(O)cc(O)c3CC2O)cc2cc(O)c(O)c(O)c12 (stereo not given): 75
- O=S(=O)(O)c1cc(N=C=S)ccc1/C=C/c1ccc(N=C=S)cc1S(=O)(=O)O: 103
- CC(C)(O/N=C(\C(=O)N[C@@H]1C(=O)N2C(C(=O)[O-])=C(C[n+]3ccccc3)CS[C@H]12)c1csc(N)n1)C(=O)O: 100
- O=c1c(O)c(-c2ccc(O)c(O)c2)oc2cc(O)cc(O)c12: 58
- COc1cc(C)c2c(c1C=O)Oc1c(c(C)c(O)c3c1C(O)OC3=O)OC2=O (stereo not given): 58
- O=c1oc2c(O)c(O)cc3c(=O)oc4c(O)c(O)cc1c4c23: 94
- Cc1ccc(C(=O)Nc2ccc(S(=O)(=O)O)c3cc(S(=O)(=O)O)cc(S(=O)(=O)O)c23)cc1NC(=O)c1cccc(NC(=O)Nc2cccc(C(=O)Nc3cc(C(=O)Nc4ccc(S(=O)(=O)O)c5cc(S(=O)(=O)O)cc(S(=O)(=O)O)c45)ccc3C)c2)c1: 61
- O=C(OC[C@H]1O[C@@H](OC(=O)c2cc(O)c(O)c(OC(=O)c3cc(O)c(O)c(O)c3)c2)[C@H](OC(=O)c2cc(O)c(O)c(OC(=O)c3cc(O)c(O)c(O)c3)c2)[C@@H](OC(=O)c2cc(O)c(O)c(OC(=O)c3cc(O)c(O)c(O)c3)c2)[C@@H]1OC(=O)c1cc(O)c(O)c(OC(=O)c2cc(O)c(O)c(O)c2)c1)c1cc(O)c(O)c(OC(=O)c2cc(O)c(O)c(O)c2)c1: 103
- CCCCCCCCCCCCCCCCC(C(=O)O)C(O)(CC(=O)O)C(=O)O (stereo not given): 58
- O=C(Oc1cc(O)cc2c1C[C@@H](OC(=O)c1cc(O)c(O)c(O)c1)[C@@H](c1cc(O)c(O)c(O)c1)O2)c1cc(O)c(O)c(O)c1: 83
- Oc1cc(O)c2c(c1)O[C@H](c1cc(O)c(O)c(O)c1)[C@H](O)C2: 68
- Oc1c(Cl)cc(Cl)c(Cl)c1Cc1c(O)c(Cl)cc(Cl)c1Cl: 66
- Cc1cc(O)c(C=O)c2c1C(=O)Oc1c(C)c(O)c3c(c1O2)C(O)OC3=O (stereo not given): 66
